Cited source for all entries: patent US9062041B2

# MEASURED_TARGET: EP2 subtype of the human PGE2 receptor (Homo sapiens, UniProt P43116)
# Sequence (P43116 whole entry): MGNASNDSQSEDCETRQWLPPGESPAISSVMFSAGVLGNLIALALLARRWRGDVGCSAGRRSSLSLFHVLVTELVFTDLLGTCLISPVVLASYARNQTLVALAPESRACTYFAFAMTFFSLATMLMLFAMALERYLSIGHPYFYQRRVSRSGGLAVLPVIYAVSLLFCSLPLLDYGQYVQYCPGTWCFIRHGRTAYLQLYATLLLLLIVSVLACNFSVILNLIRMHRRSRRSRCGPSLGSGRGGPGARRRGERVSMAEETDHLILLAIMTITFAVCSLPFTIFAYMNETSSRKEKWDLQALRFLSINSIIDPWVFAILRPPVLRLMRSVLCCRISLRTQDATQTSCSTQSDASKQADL
# ASSAY_DETAILS: cAMP antagonism test on the human EP2 receptor (HTRF cAMP detection)
# Assay type: cell-based
# MEASUREMENT_PARAMETERS: hEP2 receptor, read-out: Antagonism hEP2 IC50
# From the text: 1. Detection of Antagonism to the Human Prostaglandin E2 (Subtype EP2) Receptor Signal The binding of PGE2 to the EP2 subtype of the human PGE2 receptor induces the activation of membrane-located adenylate cyclases and leads to the formation of cAMP. […] In this test, the cAMP present in the lysate competes with a fluorescence-labelled cAMP (cAMP-d2) for binding to an Eu cryptate-labelled anti-cAMP antibody. […]
pIC50: −log10 of the molar value.
READOUT: pIC50

Check out these entries, answers already filled in.
COCCNC(=O)c1ccc2nn(CC3CCN(C(=O)c4ccc(-c5ccc(OC)cc5C)cc4)CC3)cc2c1C : 8.51
COCCNC(=O)c1ccc2nn(CC3CN(C(=O)c4ccc(SC(F)(F)F)cc4)C3)cc2c1C : 8.09
Cc1c(C(=O)NCC(F)(F)F)ccc2nn(CC3CCN(C(=O)c4nc5ccccc5n4C)CC3)cc12 : 6.34
Cc1c(C(=O)NCC(F)(F)F)ccc2nn(CC3CCN(C(=O)c4ccc(-c5ccc(F)cn5)cc4)CC3)cc12 : 6.49
Cc1c(C(=O)NCC(F)(F)F)ccc2nn(CC3CCN(C(=O)c4ccc(Cl)cc4)CC3)cc12 : 6.92

[P] Cc1cc2nn(CC3CCN(C(=O)c4ccc(C(F)(F)F)cc4F)CC3)cc2cc1C(=O)NCCN1CCOCC1
[Q] Cc1c(C(=O)NCC(F)(F)F)ccc2nn(CC3CCN(C(=O)c4ccc(N5CCOCC5)cc4)CC3)cc12
Between the two listed entries P and Q , which has its pIC50 at the higher number? Which one? Tell me its label.
P
(P: 7.07, Q: 5.98)

###

# MEASURED_TARGET: EP2 subtype of the human PGE2 receptor (Homo sapiens)
# ASSAY_DETAILS: cAMP antagonism test on the human EP2 receptor (HTRF cAMP detection)
# Format: cell-based
# MEASUREMENT_PARAMETERS: hEP2 receptor, read-out: Antagonism hEP2 IC50
READOUT: IC50 (nM)

[A] COCCNC(=O)c1ccc2nn(CC3CN(C(=O)c4ccc(Cl)c(C(F)(F)F)c4)C3)cc2c1C [Example 123]
[B] COC(C)CNC(=O)c1ccc2nn(CC3CN(C(=O)c4ccc(Oc5ccc(F)cc5)cc4)C3)cc2c1C (racemic) [Example 147]
Between A and B , which one has the lower reported IC50 value? Which one? Tell me its label.
A
(A: 8.92 nM, B: 57.4 nM)

[I] COCCNC(=O)c1ccc2nn(CC3CCN(C(=O)c4ccc(Oc5ccc(Cl)cn5)cc4)CC3)cc2c1C [Example 357]
[II] COCCNC(=O)c1ccc2nn(CC3CN(C(=O)c4ccc(Cl)cc4)C3)cc2c1C [Example 117]
[III] COC(C)CNC(=O)c1ccc2nn(CC3CN(C(=O)c4ccc(Cl)cc4)C3)cc2c1C (racemic) [Example 138]
[IV] COCCNC(=O)c1ccc2nn(CC3CN(C(=O)c4ccc(Oc5ccc(C(F)(F)F)cc5)cc4)C3)cc2c1C [Example 125]
Rank ascending by IC50. Reply with the labels, ordered as the question asks.
IV, I, II, III
(IV: 3.66 nM, I: 7.36 nM, II: 17.8 nM, III: 160 nM)

[1] COCCNC(=O)c1ccc2nn(CC3CCN(C(=O)c4ccc(Oc5cccc(C(F)(F)F)c5)cc4)CC3)cc2c1C [Example 355]
[2] Cc1c(C(=O)NCCOCC(F)(F)F)ccc2nn(CC3CCN(C(=O)c4ccc(Cl)cc4)CC3)cc12 [Example 90]
[3] Cc1cc2nn(CC3CCN(C(=O)c4cccc(OC(F)(F)F)c4)CC3)cc2cc1C(=O)NCCN1CCOCC1 [Example 76]
[4] COCCNC(=O)c1ccc2nn(CC3CCN(C(=O)c4ccc(F)cc4)CC3)cc2c1C [Example 22]
Arrange these compounds by their IC50, starting with the largest number. Reply with the labels, ordered as the question asks.
3, 4, 2, 1
(3: 179 nM, 4: 30.3 nM, 2: 14.8 nM, 1: 5.39 nM)

[P] COCCNC(=O)c1ccc2nn(CC3CCN(C(=O)c4ccc(Oc5ccc(C(F)(F)F)cn5)cc4)CC3)cc2c1C [Example 345]
[Q] Cc1c(C(=O)NCC(C)C)ccc2nn(CC3CCN(C(=O)c4ccc(Oc5ccc(C(F)(F)F)cc5)cc4)CC3)cc12 [Example 404]
[R] CCOCCNC(=O)c1ccc2nn(CC3CCN(C(=O)c4ccc(Cl)cc4)CC3)cc2c1OC [Example 264]
[S] Cc1c(C(=O)NCCSC(F)(F)F)ccc2nn(CC3CN(C(=O)c4ccc(OC(F)(F)F)cc4)C3)cc12 [Example 133]
Rank ascending by IC50. Reply with the labels, ordered as the question asks.
P, R, Q, S
